assay_notes: Permeability of compound by PAMPA
Format: ADME
run_conditions: read-out: permeability
// 0 (no) strictly below 6 ×10⁻⁶ cm/s in Papp; 1 (yes) otherwise

mol_smiles=Cc1cc(C[C@@H](NC(=O)N2CCC(c3cc4ccccc4cc3Cl)CC2)C(=O)N2CCC(N3CCCCC3)CC2)cc2cn[nH]c12 class_label="0 (no)"
mol_smiles=Cc1cc(C[C@@H](NC(=O)N2CCN(c3ccc(Br)cc3)CC2)C(=O)N2CCC(N3CCCCC3)CC2)cc2cn[nH]c12 class_label="0 (no)"
mol_smiles=Cc1cc(C[C@@H](NC(=O)N2CCC(c3ccc(C(F)(F)F)cc3C(F)(F)F)CC2)C(=O)N2CCC(N3CCCCC3)CC2)cc2cn[nH]c12 class_label="1 (yes)"
mol_smiles=Cc1cc(C[C@@H](NC(=O)N2CCN(c3ccc(Cl)cc3Cl)CC2)C(=O)N2CCC(N3CCCCC3)CC2)cc2cn[nH]c12 class_label="1 (yes)"

---

assay_target: CGRP receptor (CALCRL/RAMP1) (Homo sapiens)
assay_notes: Displacement of [125I]CGRP from CGRP receptor in human SK-N-MC cells after 2 hrs by scintillation counter
measured_quantity: log10(IC50) (log10 of the value in nM)

mol_smiles=Cc1cc(C[C@@H](NC(=O)N2CCN(c3cccc(Cl)c3)CC2)C(=O)N2CCC(N3CCCCC3)CC2)cc2cn[nH]c12 assay_target="CGRP receptor (CALCRL/RAMP1) (Homo sapiens)" recorded_measurement=1.28
mol_smiles=Cc1cc(C[C@@H](NC(=O)N2CCN(c3ccccc3Br)CC2)C(=O)N2CCC(N3CCCCC3)CC2)cc2cn[nH]c12 assay_target="CGRP receptor (CALCRL/RAMP1) (Homo sapiens)" recorded_measurement=1.08
mol_smiles=Cc1cc(C[C@@H](NC(=O)N2CCC(c3ccc(Cl)cc3Cl)CC2)C(=O)N2CCC(N3CCCCC3)CC2)cc2cn[nH]c12 assay_target="CGRP receptor (CALCRL/RAMP1) (Homo sapiens)" recorded_measurement=0.04
mol_smiles=Cc1cc(C[C@@H](NC(=O)N2CCC(c3ccccc3)CC2)C(=O)N2CCC(N3CCCCC3)CC2)cc2cn[nH]c12 assay_target="CGRP receptor (CALCRL/RAMP1) (Homo sapiens)" recorded_measurement=2.66
mol_smiles=Cc1ccccc1C1CCN(C(=O)N[C@H](Cc2cc(C)c3[nH]ncc3c2)C(=O)N2CCC(N3CCCCC3)CC2)CC1 assay_target="CGRP receptor (CALCRL/RAMP1) (Homo sapiens)" recorded_measurement=2.23
mol_smiles=Cc1cc(C[C@@H](NC(=O)N2CCC(c3ccccc3F)CC2)C(=O)N2CCC(N3CCCCC3)CC2)cc2cn[nH]c12 assay_target="CGRP receptor (CALCRL/RAMP1) (Homo sapiens)" recorded_measurement=2.23

Source: ChEMBL document CHEMBL3769346
